# Measurement target: T1, human CC chemokine receptor 4 (CCR4) (human, UniProt P51679 1-360)
# T1 sequence (looked up): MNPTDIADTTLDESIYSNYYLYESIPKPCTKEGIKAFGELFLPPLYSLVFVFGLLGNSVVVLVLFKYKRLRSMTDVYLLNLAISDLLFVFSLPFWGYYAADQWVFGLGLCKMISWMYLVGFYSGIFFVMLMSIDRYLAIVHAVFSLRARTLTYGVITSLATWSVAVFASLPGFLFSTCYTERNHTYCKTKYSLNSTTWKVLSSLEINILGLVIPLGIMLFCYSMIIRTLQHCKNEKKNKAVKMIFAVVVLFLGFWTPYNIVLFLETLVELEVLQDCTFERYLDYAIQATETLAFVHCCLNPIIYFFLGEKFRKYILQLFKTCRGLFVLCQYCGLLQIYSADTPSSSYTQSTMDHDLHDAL
# Method notes: cell-based or functional assay
Each entry below lists one item and its recorded IC50 of inhibition of TARC-mediated Ca-Flux in CCRF-CEM cells value.
Record the value in pM, omitting the unit from your answer.

Some entries whose results are on file:
INSERT INTO assay_data (binder, val) VALUES
  ('603 scFv (scFv, not shown: small tags and cut ends, Expressed in TG1 bacteria; also called scFv 603; antibody 603 (single chain form)) scFv: QVQLVQSGAEVKKPGSSVKVSCKASGGTFSSYAMSWVRQAPGQGLEWMGGIIPIFGTVNYAQKFQGRVTMTRDTSTSTVYMELSSLRSDDTAVYYCARRRGAKFDYWGQGTLVTVSSKLSGSASAPKLEEGEFSEARVSYVLTQPPSASGTPGQSVTISCSGSTSNIGSHYVVWYQQLPGTAPRLLIYRNHQRPSGVPDRLSGSKSGTSASLAIGGLRSEDEADYYCAVWDDTLSGWVFGGGTKLTVL', 2),
  ('208 scFv (scFv, not shown: small tags and cut ends) scFv: QVQLVQSGAEVKKPGSSVKVSCKASGGTFSSYAMSWVRQAPGQGLEWMGGIIPIFGTVNYAQKFQGRVTMTRDTSTSTVYMELSSLRSDDTAVYYCARRGGSYFDYWGQGTLVTVSSKLSGSASAPKLEEGEFSEARVSYVLTQPPSASGTPGQSVTISCSGSTSNIGSHYVFWYQQLPGTAPRLLIYRNHQRPSGVPDRLSGSKSGTSASLAISGLRSEDEADYYCAVWDAKYRGWVFGGGTKLTVL', 1.9),
  ('601 scFv (scFv, not shown: small tags and cut ends) scFv: QVQLVQSGAEVKKPGSSVKVSCKASGGTFSSYAMSWVRQAPGQGLEWMGGIIPIFGTVNYAQKFQGRVTMTRDTSTSTVYMELSSLRSDDTAVYYCARRRGAKFDYWGQGTLVTVSSKLSGSASAPKLEEGEFSEARVSYVLTQQPSASGTPGQSVTISCSGSTSNIGSHYVVWYQQLPGTAPRLLIYRNHQRPSGVPDRLSGSKSGTSASLAIGGLRSEDEADYYCAVWDDTLSGWVFGGGTKLTV', 3),
  ('308 scFv (scFv, not shown: small tags and cut ends) scFv: QVQLVQSGAEVKKPGSSVKVSCKASGGTFSSYAMSWVRQAPGQGLEWMGGIIPIFGTVNYAQKFQGRVTMTRDTSTSTVYMELSSLRPDDTAVYYCARRGGSYFDYWGQGTLVTVSSKLSGSASAPKLEEGEFSEARVSYVLTQPPSASGTPGQSVTISCSGSTSNIGSHYVFWYQQLPGTAPRLLIYRNHQRPSGVPDRLSGSKSGTSASLAISGLRSEDEADYYCAVWDAKYRGWVFGGGTKLTVL', 3),
  ('803 scFv (scFv, not shown: small tags and cut ends, Expressed in TG1 bacteria; also called scFv 803; antibody 803 (single chain form)) scFv: QVQLVQSGAEVKKPGSSVKVSCKASGGTFSSYAISWVRQAPGQGLEWMGGIIPIFGTANYAQKFQGRVTMTRDTSTSTVYMELSSLRSEDTAVYYCARRRGAKFDYWGQGTLVTVSSKLSGSASAPKLEEGEFSEARVSYVLTQPPSASGTPGQSVTISCSGSTSNIGSHYVVWYQQLPGTAPRLLIYRNHQRPSGVPDRLSGSKSGTSASLAIGGLRSEDEADYYCAVWDDTLSGWVFGGGTKLTVL', 10),
  ('503 scFv (scFv, not shown: small tags and cut ends, Expressed in TG1 bacteria) scFv: QVQLVQSGAEVKKPGSSVKVSCKASEGTFSSYAMSWVRQAPGQGLEWMGGIIPIFGTVNYAQKFQGRVTMTRDTSTSTVYMELSSLRSDDTAVYYCARRRGAKFDYWGQGTLVTVSSKLSGSASAPKLEEGEFSEARVSYVLTQPPSASGTPGQSVTISCSGSTSNIGSHYVVWYQQLPGTAPRLLIYRNHQRPSGVPDRLSGSKSGTSASLAIGGLRSEDEADYYCAVWDDTLSGWVFGGGTKLTVL', 1.2);

Provide IC50 of inhibition of TARC-mediated Ca-Flux in CCRF-CEM cells value for the following binder: 306 scFv (scFv, not shown: small tags and cut ends) scFv: QVQLVQSGAEVKKPGSSVKVSCKASGGTFSSYAMSWVRQAPGQGLEWMGGIIPIFGTVNYAQKFQGRVTMTRDTSTSTVYMELSSLRPDDTAVYYCARRGGSYFDYWGQGTLVTVSSKLSGSASAPKLEEGEFSEARVSYVLTQPPSASGTPGQSVTISCSGSTSNIGSHYVSWYQQLPGTAPRLLIYRNHQRPSGVPDRLSGSKSGTSASLAISGLRSEDEADYYCAVWDAKYRGWVFGGGTKLTVL
1.2

Provide IC50 of inhibition of TARC-mediated Ca-Flux in CCRF-CEM cells value for the following binder: 501 scFv (scFv, not shown: small tags and cut ends, Expressed in TG1 bacteria; also called scFv 501; antibody 501 (single chain form)) scFv: QVQLVQSGAEVKKPGSSVKVSCKASEGTFSSYAMSWVRQAPGQGLEWMGGIIPIFGTVNYAQKFQGRVTMTRDTSTSTVYMELSSLRSDDTAVYYCARRRGAKFDYWGQGTLVTVSSKLSGSASAPKLEEGEFSEARVSYVLTQQPSASGTPGQSVTISCSGSTSNIGSHYVVWYQQLPGTAPRLLIYRNHQRPSGVPDRLSGSKSGTSASLAIGGLRSEDEADYYCAVWDDTLSGWVFGGGTKLTVL
1

Provide IC50 of inhibition of TARC-mediated Ca-Flux in CCRF-CEM cells value for the following binder: 406 scFv (scFv, not shown: small tags and cut ends, Expressed in TG1 bacteria) scFv: QVQLVQSGAEVKKPGSSVKVSCKASEGTFSSYAMSWVRQAPGQGLEWMGGIIPIFGTVNYAQKFQGRVTMTRDTSTSTVYMELSSLRSDDTAVYYCARRGGSYFDYWGQGTLVTVSSKLSGSASAPKLEEGEFSEARVSYVLTQPPSASGTPGQSVTISCSGSTSNIGSHYVSWYQQLPGTAPRLLIYRNHQRPSGVPDRLSGSKSGTSASLAISGLRSEDEADYYCAVWDAKYRGWVFGGGTKLTVL
1
